tested on: Vero E6; assay: cell viability relative to DMSO; higher = less toxic; conditions: 72 h; 1 nM
measurement_label: cell viability (%)
Give the value in % but do not write % after it.

Provide value of cell viability for this record tested with Vero E6: `O=C(O)CCc1cc(I)c(Oc2ccc(O)cc2)c(I)c1` 105

Tell me reported cell viability for `Cc1cc(C)c(N(Cc2ccccc2)S(=O)(=O)c2ccc(OCCNC(=O)c3cc4ccccc4o3)cc2)c(C(=O)NO)c1` , tested with Vero E6. 105

Quick check: cell viability on Vero E6, item `O=C1c2ccccc2C(Cc2ccncc2)(Cc2ccncc2)c2ccccc21` ? 94.5

Param readout = cell viability; param system = Vero E6; param query = `CCCCN1[C@@H]2CC[C@H]1C[C@@H](OC(c1ccc(F)cc1)c1ccc(F)cc1)C2` ; response: value 102

----------
tested on: HepG2; experiment: cell viability relative to DMSO; higher = less toxic; details: 72 h; 100 nM
measurement_label: cell viability (%)
Numbers only here, please. The scale is %.

cell viability for `O[C@H]1[C@H](O)[C@@H](O)[C@H](O)[C@@H](O)[C@H]1O` ? 105

What does the data say about its cell viability? Entry: `CN(C)CCNc1nc2cc(O)ccc2c2c1C(=O)c1ccccc1-2` 66.3

Please give the measured cell viability for this compound: `c1ccc2[nH]c(-c3cscn3)nc2c1` 102

I'd like to know its cell viability. The compound in question is `O=C1c2ccccc2C(Cc2ccncc2)(Cc2ccncc2)c2ccccc21` 97.6

// query cell viability value for entry [O-][n+]1cccc(CO)c1 [mepiroxol] 104

Entry `COc1ccc(Nc2ccn(-c3ccccc3)n2)cc1` has what cell viability? 97.6

Quick one: cell viability of `COc1cccc(-c2ccc([C@@H](Oc3cc(-c4ccc(C[C@H](N)C(=O)O)cc4)nc(N)n3)C(F)(F)F)cc2)c1` ? 111

Fill in: cell viability of `Cc1cccc(Nc2ccccc2C(=O)O)c1C` is ___ 100

Look at this compound and give its reported cell viability. NC(=O)c1cnccn1 [pyrazinamide] 105

Need cell viability of `C#C[C@]1(O)CC[C@H]2[C@@H]3CCC4=CC(=O)CC[C@]4(C)[C@H]3CC[C@@]21C` , thanks. 97.9

----------
tested on: Caco-2; assay: cell viability relative to DMSO; higher = less toxic; conditions: 72 h; 10000 nM
measurement_label: cell viability (%)
Write it as a number; the unit % goes unstated.

Short answer please: cell viability, Caco-2, entry `N#Cc1cc(CN2CCC(Nc3ncnc4sc(Cl)cc34)CC2)ccc1F` 79.7

Look up cell viability with Caco-2 for this compound: `CCS(=O)(=O)c1ccc2oc(-c3ccc4ccccc4c3)nc2c1` 90.2

Fill in the recorded cell viability for this compound, with Caco-2 as test system: `O=C(O)C[C@H]1CC[C@H](c2ccc(-c3ccc(Nc4ccc(C(F)(F)F)nc4)cn3)cc2)CC1` 92.4

Which measured cell viability belongs to `Cn1c2c(c3ccccc31)CCNCC2` , tested on Caco-2? 97.1

Query for Caco-2: what cell viability does the record show for `Nc1nc2c(cnn2CCc2ccccc2)c2nc(-c3ccco3)nn12` ? 67.5

Param readout = cell viability; param system = Caco-2; param query = `C[C@@H]1CN(Cc2ncccn2)C[C@H]1c1nc2c(cnn2C2CCOCC2)c(=O)[nH]1` ; response: value 107

For Caco-2, provide cell viability of `C[C@@H]1CN(c2c(F)c(F)c3c(=O)c(C(=O)O)cn(C4CC4)c3c2F)C[C@H](C)N1` please. 94.6

Under Caco-2: cell viability value of `CC1(CN)Cc2ccccc2C1` ? 110

Checklist item: cell viability tested on Caco-2, entry Nc1ncnc2c1ncn2[C@@H]1O[C@H](COP(=O)(O)O)[C@@H](O)[C@H]1O [adenosine-phosphate] , value? 92.8

Source of measurements: the supplement of paper PMC13380429
